# TESTED_SYSTEM: T1, G9a and GLP (Homo sapiens, UniProt Q96KQ7+Q9H9B1)
# T1 sequence (Q96KQ7 2-1210 limits assumed): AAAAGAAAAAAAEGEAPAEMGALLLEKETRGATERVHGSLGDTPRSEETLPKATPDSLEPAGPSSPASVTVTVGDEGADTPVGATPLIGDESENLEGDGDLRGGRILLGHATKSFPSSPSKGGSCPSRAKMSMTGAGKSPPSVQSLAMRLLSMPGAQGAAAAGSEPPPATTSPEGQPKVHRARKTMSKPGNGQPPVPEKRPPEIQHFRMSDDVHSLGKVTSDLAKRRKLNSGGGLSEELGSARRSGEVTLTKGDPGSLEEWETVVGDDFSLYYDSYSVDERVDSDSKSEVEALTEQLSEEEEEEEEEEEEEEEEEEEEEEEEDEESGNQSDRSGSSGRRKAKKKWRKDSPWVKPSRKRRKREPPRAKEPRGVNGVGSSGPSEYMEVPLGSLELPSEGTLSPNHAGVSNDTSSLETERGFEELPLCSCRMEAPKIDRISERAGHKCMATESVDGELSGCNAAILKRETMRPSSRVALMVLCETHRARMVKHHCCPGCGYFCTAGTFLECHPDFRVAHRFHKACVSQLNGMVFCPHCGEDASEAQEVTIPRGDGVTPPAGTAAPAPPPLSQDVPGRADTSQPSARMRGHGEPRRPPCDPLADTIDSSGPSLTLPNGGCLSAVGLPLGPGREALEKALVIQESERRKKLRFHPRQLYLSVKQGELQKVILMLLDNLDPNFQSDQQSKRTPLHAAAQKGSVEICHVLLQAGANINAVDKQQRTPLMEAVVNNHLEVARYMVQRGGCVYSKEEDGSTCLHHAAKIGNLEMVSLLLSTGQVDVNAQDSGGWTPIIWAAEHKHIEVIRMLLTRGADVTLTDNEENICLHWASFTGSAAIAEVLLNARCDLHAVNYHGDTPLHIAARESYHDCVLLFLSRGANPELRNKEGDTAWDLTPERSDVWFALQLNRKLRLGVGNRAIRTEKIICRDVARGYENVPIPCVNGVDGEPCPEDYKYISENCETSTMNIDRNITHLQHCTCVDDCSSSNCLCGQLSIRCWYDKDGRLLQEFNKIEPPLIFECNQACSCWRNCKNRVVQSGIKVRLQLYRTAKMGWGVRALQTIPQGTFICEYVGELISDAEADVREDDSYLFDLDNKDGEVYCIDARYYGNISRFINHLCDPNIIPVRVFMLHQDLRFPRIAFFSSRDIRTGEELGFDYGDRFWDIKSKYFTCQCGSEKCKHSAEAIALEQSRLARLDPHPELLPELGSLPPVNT
# T1 sequence (Q9H9B1 2-1298 limits assumed): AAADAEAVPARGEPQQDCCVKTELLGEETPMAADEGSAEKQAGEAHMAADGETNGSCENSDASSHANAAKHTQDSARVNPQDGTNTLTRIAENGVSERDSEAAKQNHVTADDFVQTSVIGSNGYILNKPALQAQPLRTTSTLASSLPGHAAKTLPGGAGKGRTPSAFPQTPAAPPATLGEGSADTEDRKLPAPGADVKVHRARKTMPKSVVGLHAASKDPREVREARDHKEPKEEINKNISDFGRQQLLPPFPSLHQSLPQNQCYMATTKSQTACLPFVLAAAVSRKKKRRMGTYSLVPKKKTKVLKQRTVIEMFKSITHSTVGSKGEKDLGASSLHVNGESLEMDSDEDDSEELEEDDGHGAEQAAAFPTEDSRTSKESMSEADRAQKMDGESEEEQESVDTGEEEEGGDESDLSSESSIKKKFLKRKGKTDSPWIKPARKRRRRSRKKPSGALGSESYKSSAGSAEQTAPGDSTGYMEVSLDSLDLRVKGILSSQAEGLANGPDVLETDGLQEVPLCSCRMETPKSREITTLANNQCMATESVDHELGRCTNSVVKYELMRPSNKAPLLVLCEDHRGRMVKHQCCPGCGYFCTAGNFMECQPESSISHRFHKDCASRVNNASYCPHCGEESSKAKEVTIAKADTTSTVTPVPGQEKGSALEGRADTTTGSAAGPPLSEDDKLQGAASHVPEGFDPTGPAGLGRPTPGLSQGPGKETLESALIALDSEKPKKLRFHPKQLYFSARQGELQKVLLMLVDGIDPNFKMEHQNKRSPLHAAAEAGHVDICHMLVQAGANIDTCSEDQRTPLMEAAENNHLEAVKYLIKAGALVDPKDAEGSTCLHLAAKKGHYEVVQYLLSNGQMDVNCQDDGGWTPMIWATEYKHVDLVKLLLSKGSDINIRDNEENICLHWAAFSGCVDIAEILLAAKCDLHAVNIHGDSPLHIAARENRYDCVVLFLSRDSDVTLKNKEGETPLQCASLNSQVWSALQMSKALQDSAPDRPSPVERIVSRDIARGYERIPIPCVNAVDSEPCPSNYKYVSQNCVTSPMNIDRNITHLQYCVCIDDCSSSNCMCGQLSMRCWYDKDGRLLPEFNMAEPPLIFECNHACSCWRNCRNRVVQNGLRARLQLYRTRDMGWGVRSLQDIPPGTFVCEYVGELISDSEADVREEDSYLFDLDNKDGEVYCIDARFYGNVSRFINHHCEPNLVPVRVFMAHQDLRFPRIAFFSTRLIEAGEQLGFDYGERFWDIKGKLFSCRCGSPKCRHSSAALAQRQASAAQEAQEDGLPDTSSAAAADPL
# ASSAY_DETAILS: Triple SILAC pull-down after UNC0638 treatment of 293T cells, DMSO/UNC0638 ratio of protein captured by 3×MBT;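 further: mass spectrometry (Q-Exactive) SILAC quantitation, DMSO/UNC0638 ratio computed after subtracting 3×MBTD355N mutant pull-down background, only proteins with at least twofold 3×MBT over mutant signal considered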
# Type: cell-based
# Set-up: endogenous in cells; host or cells: HEK 293T
# STATED_CONDITIONS: SILAC ratio DMSO/UNC0638 of protein pulled down with 3xMBT; UNC0638 in heavy SILAC media
Listing of recorded Relative to UNC0638 UNC Heavy by entry.
The reply should be a number in log base 2, with the unit left off.

Illustrative cases are given below, each with its answer.
[[record]]
molecule = "HN1L (protein, UniProt Q9H910 1-190, looked up) Jupiter microtubule …: MFQVPDSEGGRAGSRAMKPPGGESSNLFGSPEEATPSSRPNRMASNIFGPTEEPQNIPKRTNPPGGKGSGIFDESTPVQTRQHLNPPGGKTSDIFGSPVTATSRLAHPNKPKDHVFLCEGEEPKSDLKAARSIPAGAEPGEKGSARKAGPAKEQEPMPTVDSHEPRLGPRPRSHNKVLNPPGGKSSISFY"
result_type = "Relative to UNC0638 UNC Heavy"
reported_value = 0.17

[[record]]
molecule = "DENR (protein, UniProt O43583 2-198, looked up) Density-regulated protein: AADISESSGADCKGDPRNSAKLDADYPLRVLYCGVCSLPTEYCEYMPDVAKCRQWLEKNFPNEFAKLTVENSPKQEAGISEGQGTAGEEEEKKKQKRGGRGQIKQKKKTVPQKVTIAKIPRAKKKYVTRVCGLATFEIDLKEAQRFFAQKFSCGASVTGEDEIIIQGDFTDDIIDVIQEKWPEVDDDSIEDLGEVKK"
result_type = "Relative to UNC0638 UNC Heavy"
reported_value = 0.09


QUERY: Quick one: Relative to UNC0638 UNC Heavy for U2AF1 (protein, UniProt Q01081 2-240, looked up) Splicing factor U2AF 35 kDa …: AEYLASIFGTEKDKVNCSFYFKIGACRHGDRCSRLHNKPTFSQTIALLNIYRNPQNSSQSADGLRCAVSDVEMQEHYDEFFEEVFTEMEEKYGEVEEMNVCDNLGDHLVGNVYVKFRREEDAEKAVIDLNNRWFNGQPIHAELSPVTDFREACCRQYEMGECTRGGFCNFMHLKPISRELRRELYGRRRKKHRSRSRSRERRSRSRDRGRGGGGGGGGGGGGRERDRRRSRDRERSGRF ?
RESULT: 0.20

QUERY: Try RALY (protein, UniProt Q9UKM9 2-306, looked up) RNA-binding protein Raly: SLKLQASNVTNKNDPKSINSRVFIGNLNTALVKKSDVETIFSKYGRVAGCSVHKGYAFVQYSNERHARAAVLGENGRVLAGQTLDINMAGEPKPDRPKGLKRAASAIYSGYIFDYDYYRDDFYDRLFDYRGRLSPVPVPRAVPVKRPRVTVPLVRRVKTNVPVKLFARSTAVTTSSAKIKLKSSELQAIKTELTQIKSNIDALLSRLEQIAAEQKANPDGKKKGDGGGAGGGGGGGGSGGGGSGGGGGGGSSRPPAPQENTTSEAGLPQGEARTRDDGDEEGLLTHSEEELEHSQDTDADDGALQ next.
RESULT: 0.12

QUERY: Try PPP1CB (protein, UniProt P62140 2-327, looked up) Serine/threonine-protein …: ADGELNVDSLITRLLEVRGCRPGKIVQMTEAEVRGLCIKSREIFLSQPILLELEAPLKICGDIHGQYTDLLRLFEYGGFPPEANYLFLGDYVDRGKQSLETICLLLAYKIKYPENFFLLRGNHECASINRIYGFYDECKRRFNIKLWKTFTDCFNCLPIAAIVDEKIFCCHGGLSPDLQSMEQIRRIMRPTDVPDTGLLCDLLWSDPDKDVQGWGENDRGVSFTFGADVVSKFLNRHDLDLICRAHQVVEDGYEFFAKRQLVTLFSAPNYCGEFDNAGGMMSVDETLMCSFQILKPSEKKAKYQYGGLNSGRPVTPPRTANPPKKR next.
RESULT: 0.28
